Target: Kappa-type opioid receptor (Cavia porcellus)
Sequence (P41144 whole entry): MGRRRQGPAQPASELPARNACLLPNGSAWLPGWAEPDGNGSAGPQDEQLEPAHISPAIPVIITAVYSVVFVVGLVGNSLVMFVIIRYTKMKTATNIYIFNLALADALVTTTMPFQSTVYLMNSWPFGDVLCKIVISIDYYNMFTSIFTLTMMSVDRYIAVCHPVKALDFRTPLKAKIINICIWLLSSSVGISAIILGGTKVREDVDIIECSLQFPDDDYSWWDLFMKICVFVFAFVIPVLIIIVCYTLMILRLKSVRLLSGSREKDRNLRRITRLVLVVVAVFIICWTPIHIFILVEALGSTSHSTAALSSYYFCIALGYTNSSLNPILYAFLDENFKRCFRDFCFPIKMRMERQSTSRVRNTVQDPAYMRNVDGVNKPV
compounds and their reported Ki

{"COMPOUND": "CN1CCC2(CC1)COc1c(O)cccc12", "Ki": "> 100 µM"}
{"COMPOUND": "CC1Oc2c(O)cccc2C12CCN(C)CC2 (racemic)", "Ki": "> 100 µM"}
{"COMPOUND": "CC1CN(C)CCC12COc1c(O)cccc12 (racemic; form 2)", "Ki": "0.505 µM"}

Quick one: Ki for CCOC(=O)C1(c2ccccc2)CCN(C)CC1 [MEPERIDINE] ?
> 100 µM

Then what about the compound CCC1Oc2c(O)cccc2C12CCN(C)CC2 (racemic) ?
> 100 µM

Try the compound CC1CN(C)CCC12COc1c(O)cccc12 (racemic; form 1)
0.177 µM
